Cited source: ChEMBL document CHEMBL1777805

# Experimental details: Cytotoxicity against human HuH7 cells assessed as reduction in cell proliferation
# Type: cell-based, Huh-7

Smiles str: O=c1cc(CNCc2ccc(Cl)cc2)oc2ccc(O)c(O)c12
CC50: > 100 µM

Smiles str: O=c1cc(CNCc2cccc(O)c2)oc2ccc(O)c(O)c12
CC50: > 100 µM

Smiles str: O=c1cc(CNCc2ccccc2I)oc2ccc(O)c(O)c12
CC50: 87.3 µM

* * *

// values below are reported CC50
# Experimental details: Cytotoxicity against human HuH7 cells assessed as reduction in cell proliferation
# Assay type: cell-based, Huh-7
Result type: CC50 (µM)

Smiles str: O=c1cc(CNCc2ccccc2[N+](=O)[O-])oc2ccc(O)c(O)c12
Result type: CC50
Relation sign: =
Reported measurement: 41.3
--
Smiles str: O=c1cc(CNCc2cccc([N+](=O)[O-])c2)oc2ccc(O)c(O)c12
Result type: CC50
Relation sign: >
Reported measurement: 100
--
Smiles str: O=c1cc(CNCc2cccc(Br)c2)oc2ccc(O)c(O)c12
Result type: CC50
Relation sign: >
Reported measurement: 100
--
Smiles str: O=c1cc(CNCc2ccc(O)cc2)oc2ccc(O)c(O)c12
Result type: CC50
Relation sign: =
Reported measurement: 62.7
--
Smiles str: O=c1cc(CNCc2ccc(I)cc2)oc2ccc(O)c(O)c12
Result type: CC50
Relation sign: =
Reported measurement: 41.7
--
Smiles str: O=c1cc(CNCc2ccc([N+](=O)[O-])cc2)oc2ccc(O)c(O)c12
Result type: CC50
Relation sign: =
Reported measurement: 73.3
